Biological target: Virion infectivity factor (Human immunodeficiency virus type 1 group M subtype B (isolate BH10)) + Virion infectivity factor (Human immunodeficiency virus type 1 group M subtype B (isolate BRU/LAI)) + Virion infectivity factor (Human immunodeficiency virus type 1 group M subtype B (isolate PCV12)) + Virion infectivity factor (Human immunodeficiency virus type 1 group M subtype B (isolate HXB2)) + DNA dC->dU-editing enzyme APOBEC-3G (Homo sapiens) (UniProt P69720+P69721+P69722+P69723+Q9HC16)
Assay: HIV-1 Vif–A3G interaction blockers – biochemical, TR-FRET, GST-Vif 1-94, biotin-A3G peptide, dose response retest, primary screen (AID 1117319);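 further: Vif residues 1-94 fused to GST binding biotinylated APOBEC3G peptide 110-148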
Details: TR-FRET GST-Vif / biotin-A3G peptide binding
Results filed as inconclusive are left out.
Here the recorded IC50 is given for each entry.
Property: IC50

>>> endpoint_value("O=C(NN1C(=O)/C(=C/C=C/c2ccco2)SC1=S)c1ccccc1O")
"1.93 µM"
>>> endpoint_value("CCCCNC(=O)c1ccc2nc(-c3ccco3)c(-c3ccco3)nc2c1")
"1.19 µM"
>>> endpoint_value("CC1=Nc2cccc3cccc(c23)N1")
"0.53 µM"
>>> endpoint_value("Cc1cc2nc(C)n(CCCNC(=O)Nc3ccc(F)cc3)c2cc1C")
"47.6 µM"
>>> endpoint_value("COc1cc(-c2nnc(SCc3cc(=O)oc4cc(O)c(O)cc34)o2)cc(OC)c1OC")
"8.36 µM"
>>> endpoint_value("CC1(C)CC2(CC(c3ccccc3F)c3ccc(O)c(O)c3O2)NC(=S)N1 (stereo unspecified)")
"13.7 µM"

* * *

Target: Virion infectivity factor (Human immunodeficiency virus type 1 group M subtype B (isolate BH10)) + Virion infectivity factor (Human immunodeficiency virus type 1 group M subtype B (isolate BRU/LAI)) + Virion infectivity factor (Human immunodeficiency virus type 1 group M subtype B (isolate PCV12)) + Virion infectivity factor (Human immunodeficiency virus type 1 group M subtype B (isolate HXB2)) + DNA dC->dU-editing enzyme APOBEC-3G (Homo sapiens) (UniProt P69720+P69721+P69722+P69723+Q9HC16)
Experiment: HIV-1 Vif–A3G interaction blockers – biochemical, TR-FRET, GST-Vif 1-94, biotin-A3G peptide, dose response retest, primary screen (AID 1117319);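 further: Vif residues 1-94 fused to GST binding biotinylated APOBEC3G peptide 110-148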
Details: TR-FRET GST-Vif / biotin-A3G peptide binding
pIC50: −log10 of the molar value. Results filed as inconclusive are left out.
Property: pIC50

>>> endpoint_value("CCN(CC)c1ccc(NC2CC(=O)N(CCc3ccc(OC)cc3)C2=O)cc1 (stereo unspecified)")
5.16
>>> endpoint_value("COc1ccccc1NC(=O)c1oc2ccc(C)cc2c1C")
4.01
>>> endpoint_value("Cn1c(N)c(C(=O)COC(=O)C2CCCCC2)c(=O)n(C)c1=O")
4.03
>>> endpoint_value("O=C(c1ccc2nc(-c3ccco3)c(-c3ccco3)nc2c1)N1CCN(c2ncccn2)CC1")
5.99
>>> endpoint_value("O=C(O)c1ccc(-n2cccc2/C=C2/NC(=O)N(c3cccc(Cl)c3)C2=O)cc1")
5.77
>>> endpoint_value("COc1cc(CNCCc2ccc(F)cc2)ccc1OCc1ccc(Cl)nc1")
5.50

* * *

Here the recorded IC50 is given for each entry.
Molecular target: Virion infectivity factor (Human immunodeficiency virus type 1 group M subtype B (isolate BH10)) + Virion infectivity factor (Human immunodeficiency virus type 1 group M subtype B (isolate BRU/LAI)) + Virion infectivity factor (Human immunodeficiency virus type 1 group M subtype B (isolate PCV12)) + Virion infectivity factor (Human immunodeficiency virus type 1 group M subtype B (isolate HXB2)) + DNA dC->dU-editing enzyme APOBEC-3G (Homo sapiens) (UniProt P69720+P69721+P69722+P69723+Q9HC16)
Test: HIV-1 Vif–A3G interaction blockers – biochemical, TR-FRET, GST-Vif 1-94, biotin-A3G peptide, dose response retest, primary screen (AID 1117319);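 further: Vif residues 1-94 fused to GST binding biotinylated APOBEC3G peptide 110-148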
Conditions: TR-FRET GST-Vif / biotin-A3G peptide binding
Inconclusive results are not listed.
Property: IC50

>>> endpoint_value("O=S(=O)(O)c1cccc2c(N=Nc3ccc(O)c4ncccc34)cccc12")
"13.6 µM"
>>> endpoint_value("CC1=C(O)C(=O)C=C2C1=CC=C1C2(C)CCC2(C)C3CC(C)(C(=O)O)CCC3(C)CCC12C (stereo unspecified)")
"12.2 µM"
>>> endpoint_value("O=C(/C=C/c1cccs1)Nc1ccc(Br)cn1")
"10.2 µM"
>>> endpoint_value("O=C1c2c(O)ccc(O)c2C(=O)c2c(NCCNCCO)ccc(NCCNCCO)c21")
"7.96 µM"
>>> endpoint_value("CN(C)c1ccc2cc(S(=O)(=O)O)cc(O)c2c1")
"10.2 µM"
>>> endpoint_value("O=C1NC(=O)N(c2ccccc2)C(=O)/C1=C\\c1ccc([N+](=O)[O-])s1")
"13.4 µM"
